System: HOP-92 NSCLC
PROCEDURE TEXT: NCI-60 one-dose screen, 48 h
CONDITION INFO: 10 µM unless noted
The panel holds about 83,000 compounds, 20% with a hit somewhere; the sample as a whole holds those more often. Activity calls are given as the source filed them. The calls were made as follows: active = growth percent below 10; inactive = the rest.
Returns: one label drawn from active, inactive

Qu. Which outcome was entered for the compound O=C(c1cc2cc(OCCCN3CCC3)ccc2[nH]1)N1C[C@@H](CCl)c2c1cc(OCc1ccccc1)c1ccccc21 in this test?
Ans. active

Qu. Which outcome was entered for the compound CN(C)CCCNC(=S)Nc1ccc(/C=C/c2ccc(Cl)cc2)cc1 in this test?
Ans. active

Qu. Which outcome was entered for the compound N#CC1=C(c2ccco2)Nc2c(c(-c3ccccc3)nn2-c2ccccc2)C12C(=O)Nc1ccc(Cl)cc12 (stereo not drawn) in this test?
Ans. active

Qu. Which outcome was entered for the compound CCOC(=O)/C(F)=C/C1CC1C(c1ccccc1)c1ccccc1 (stereo not drawn) in this test?
Ans. inactive

Qu. Which outcome was entered for the compound Clc1ccccc1Nc1nnc(-c2c[nH]c3ccccc23)o1 in this test?
Ans. inactive

Qu. Which outcome was entered for the compound CCc1ccccc1NC(=O)N/C(N)=N/c1nc2ccccc2s1 in this test?
Ans. active

Qu. Which outcome was entered for the compound CN(C)c1nc(NCCNS(=O)(=O)c2ccc(C(=O)/C=C/c3ccc(Cl)cc3)cc2)nc(N2CCOCC2)n1 in this test?
Ans. inactive

Qu. Which outcome was entered for the compound Cn1cc(-c2cc(N)n3nc(-c4c[nH]c5ccc(F)cc45)cc3n2)c2cccnc21 in this test?
Ans. active

###

Can you tell me growth for the items I'm about to list?
Tested on: DU-145 prostate
PROCEDURE TEXT: NCI-60 one-dose screen, 48 h (100 = growth as untreated, 0 = no growth, -100 = all killed)
CONDITION INFO: 10 µM unless noted
Method: Cells are grown in 96 well plates and exposed to the test compound for 48 hours. Compounds are tested at a single concentration, which is 10^-5 M for most compounds. The reported endpoint is percent growth (GI% or GIPRCNT), where numbers from 0 - 100% represent growth inhibition, and numbers from -100% - 0 represent cell death. For example, a value of 40 represents 60% growth inhibition. A value of 0 means no net growth occurred over the course of the experiment. […]
The panel holds about 83,000 compounds, 20% with a hit somewhere; the sample as a whole holds those more often.
Just the number in %, nothing appended.

Reported growth of Oc1ccc(Cl)c(Nc2nc(SCCN3CCOCC3)nc3c2cnn3CC(Cl)c2ccc(Br)cc2)c1 (configuration not stated) : 35

Reported growth of Clc1ccc(CNc2nc(SCCN3CCOCC3)nc3c2cnn3CC(Cl)c2ccc(Br)cc2)cc1 (configuration not stated) : 57.1

Reported growth of N#Cc1ccc(C(=O)NNC(=O)CSc2nc3sc4c(c3c(=O)n2-c2ccc(Cl)cc2)CCCC4)cc1 : 70.4

Reported growth of CNS(=O)(=O)N1CCc2c(Br)c3c(c(OC)c2C1CCc1ccccc1)OCO3 (configuration not stated) : 12.1

Reported growth of Cc1ccc(C2CC(c3ccc(NC(=O)Nc4ccccc4)cc3)=NN2c2ccc(S(C)(=O)=O)cc2)cc1 (configuration not stated) : 3.25

Reported growth of O=C(Cc1c(-c2ccccc2[N+](=O)[O-])n(-c2ncnc3c2c(-c2ccccc2)c(-c2ccccc2)n3Cc2ccccc2)[nH]c1=O)c1ccc(Cl)c(Cl)c1 : 32.2

Reported growth of C=CC(=O)N1CCN(c2ccc3nc4c(nc3c2C(F)(F)F)C(=O)c2ncccc2C4=O)CC1 : 23.6

Reported growth of COc1ccc2c(c1)N=c1c-2cc2c(O)[nH]c(=S)n2c1=O : 50.8

Reported growth of O=c1[nH]c2ccccc2cc1COc1ccc(Nc2nccc(-c3ccc(Cl)cc3)n2)cc1 : 89

Reported growth of COc1ccccc1/C=C/c1cccc(NC(=S)NCCCCN(C)C)c1 : -69

Reported growth of Cc1ccc(Nc2nnc(-c3c[nH]c4ccccc34)o2)c(C)c1 : 16.5

Reported growth of O=C1Nc2ccccc2/C1=C/C(=O)c1cc2ccccc2oc1=O : 97.3
